- Tested on: DMS 273 small cell lung
- assay text: NCI tumour cell line growth inhibition, 48 h
TGI values for the molecules below.

# annotated cases, reported TGI shown
[[record]]
molecule = "Nc1ccc(C(=O)N/C(=C\\c2cccc([N+](=O)[O-])c2)c2nc3ccccc3[nH]2)cc1"
property = "TGI"
measured = "> 100 µM"

[[record]]
molecule = "CC(C)S(=O)(=O)ON1C(=O)c2ccc(N(C)C)cc2C1=O"
property = "TGI"
measured = "35.6 µM"

[[record]]
molecule = "O=c1cc(O)ccn1C1C=C(CO)C(O)C1O (stereo unspecified)"
property = "TGI"
measured = "> 625 µM"

[[record]]
molecule = "CCN(CC)c1c(C)c(C(=O)OC)nn1-c1ccccc1"
property = "TGI"
measured = "> 100 µM"

[[record]]
molecule = "Cc1cc(C)c(-n2c(-c3ccccc3)cs/c2=N\\N=C2C=C(C(C)(C)C)C(=O)C(C(C)(C)C)=C2)c(C)c1"
property = "TGI"
measured = "> 100 µM"

[[record]]
molecule = "NC(N)=NS(=O)(=O)c1ccc(NC(=O)c2cccc3c(Nc4ccc(S(=O)(=O)N=C(N)N)cc4)c4ccccc4nc23)cc1"
property = "TGI"
measured = "> 100 µM"

[[record]]
molecule = "NC(CCCNCc1ccccc1)C(=O)O (stereo unspecified)"
property = "TGI"
measured = "> 100 µM"

[[record]]
molecule = "COc1cccc(C=O)c1[O-].COc1cccc(C=O)c1[O-].[Cu+2]"
property = "TGI"
measured = "36.2 µM"


Report the value of TGI obtained on DMS 273 small cell lung for CC/C=C/c1cc2c(c3[nH]ccc13)[C@@H](C)CC2C (stereo partly specified) (tested in a mixture with another compound) . 29.4 µM

Report the value of TGI obtained on DMS 273 small cell lung for Cc1nc2c(nc1C)C(=O)C1=C(C2=O)C2C=CC1CC2 . 29.8 µM

Report the value of TGI obtained on DMS 273 small cell lung for C/C=C/CC(S(=O)(=O)c1ccccc1)S(=O)(=O)c1ccccc1 . > 100 µM

Where these numbers come from: PubChem BioAssay (NCI)
